- Procedure summary: Primary qHTS for delayed death inhibitors of the malarial parasite plastid, 48 hour incubation
- Assay context: P. falciparum luciferase growth in erythrocytes; series mostly up to 28.7 µM
Screen size: about 310,000 compounds; about 18,000 (5.8%) were called active. Inconclusive results (about 22%) are left out. Calls follow the shape of the dose curve; as a rule, active = well fitted inhibition curve with a large enough effect; inconclusive = small, poorly fitted or top-dose-only effect, or another doubt; inactive = no such curve, though single readings can be large or run the other way. Shown is part of a subset that was picked to be rich in actives.
Pick one and only one: active, inactive

Please review the entries below; each comes with its answer.
Molecule | Answer label
COc1ccc(CCN(C)C(=O)C23CC4CC(CC(Cl)(C4)C2)C3)cc1OC | inactive
O=C1OC(c2ccc(Cl)cc2)=N/C1=C\c1cccnc1 | inactive
CS(=O)(=O)N(CC(=O)Nc1ccc(F)cc1)C1CCCCC1 | inactive
CS(=O)(=O)Nc1cccc(C2=NN(C(=O)c3cccc(F)c3)C(c3cccs3)C2)c1 (stereo not drawn) | active

Query string: Give the logged outcome of this assay for the following molecule: `CCc1ccc(NC(=O)CCNS(=O)(=O)c2cccs2)cc1`
Result string: inactive

Query string: // param item: `CC(=O)Nc1ccc(S(=O)(=O)N2CCC(C(=O)NC3CC3)CC2)cc1` ; yields the recorded call
Result string: inactive

Query string: For NC(=O)NC(=O)C(OC(=O)CCNS(=O)(=O)c1ccccc1)c1ccccc1 (stereo not drawn) , which call appears in the assay record?
Result string: inactive

Query string: What was the test verdict on `COc1ccc(CNc2ncnc3ccccc23)cc1` ?
Result string: inactive

====

- Procedure summary: Primary qHTS for delayed death inhibitors of the malarial parasite plastid, 48 hour incubation
- Assay context: P. falciparum luciferase growth in erythrocytes; series mostly up to 28.7 µM
The whole screen tested about 310,000 compounds, of which about 18,000 (5.8%) were called active. Roughly 22% stayed inconclusive and do not appear here. The call rests on the fitted dose curve; in most records, active means well fitted inhibition curve with a large enough effect; inconclusive means small, poorly fitted or top-dose-only effect, or another doubt; inactive means no such curve, though single readings can be large or run the other way. For the sample, actives were picked, then their nearest neighbours and some compounds at random.
Would you mind answering with one of these outcomes? active, inactive

Worked examples follow.
Compound | Answer label
O=C(NC(Nc1nc2ccc([N+](=O)[O-])cc2s1)(C(F)(F)F)C(F)(F)F)c1ccccc1 | active
COc1ccc2oc(C(=O)OCC(=O)N(CC(C)C)c3c(N)n(Cc4ccccc4)c(=O)[nH]c3=O)c(C)c2c1 | inactive
COc1cc(NC(=O)NCC2CCN(Cc3ccc(C)cc3)CC2)cc(OC)c1OC | inactive
O=C(NC1CCCCC1)c1ccc2c(=O)n(CC3CCCO3)c(=O)[nH]c2c1 (stereo not drawn) | inactive
NC(=O)C1CCN(C(=O)c2ccc(F)c(S(=O)(=O)N3CCOCC3)c2)CC1 | inactive

Query string: Recorded test call requested for `CCOc1ccc(NC(=O)COc2ccc(C(=O)N3CCC(C(N)=O)CC3)cc2OC)cc1`
Result string: inactive

Query string: Hi, sorry to bother you, what did the test record for `COc1ccc(CCNC(=S)N2CCN(S(=O)(=O)c3ccc(F)cc3)CC2)cc1` ?
Result string: active

Query string: Assay outcome for COc1ccc(-c2noc(CNC(=O)C(C)Oc3ccccc3)n2)cc1 (stereo not drawn) : what was it?
Result string: inactive

Query string: Outcome? `O=[N+]([O-])c1ccc(N2CCN(c3ccc(F)cc3)CC2)cn1`
Result string: inactive

Query string: Record lookup: outcome of this test for `CNC(=O)CN1C(=O)NC(c2ccccc2)(c2ccccc2)C1=O` ?
Result string: inactive

Query string: # outcome recorded in this test, key = `COc1ccc(CNC(=O)c2ccc(Br)s2)cc1OC`
Result string: inactive

Query string: # outcome recorded in this test, key = `COc1cc(-c2c(-c3ccc4c(c3)OCO4)noc2C)ccc1F`
Result string: inactive

Query string: Which outcome was assigned to `NC1=NC[C@@H](Cc2ccc(O)cc2)N1CC1CCCCC1` in this test?
Result string: active

Query string: State the result this test recorded for COc1ccc(CCNC(=O)C2CCCN(S(=O)(=O)c3ccc(OC)cc3)C2)cc1 (stereo not drawn) .
Result string: active

Query string: Please share the test call associated with O=C(C1CCC(=O)N(C2CC2)C1)N1CCN(c2ccc(Cl)cc2)CC1 (stereo not drawn) .
Result string: inactive

Query string: Per the records of this test, what outcome belongs to `Cc1cc(=O)oc2cc(OCC(=O)N3CCN(c4ccc(F)cc4)CC3)c(Cl)cc12` ?
Result string: inactive

====

- Procedure summary: Primary qHTS for delayed death inhibitors of the malarial parasite plastid, 48 hour incubation
- Assay context: P. falciparum luciferase growth in erythrocytes; series mostly up to 28.7 µM
Screen size: about 310,000 compounds; about 18,000 (5.8%) were called active. About 22% were inconclusive and are not listed. Calls follow the shape of the dose curve; as a rule, active = well fitted inhibition curve with a large enough effect; inconclusive = small, poorly fitted or top-dose-only effect, or another doubt; inactive = no such curve, though single readings can be large or run the other way. Only a selection was taken, and actives are over-represented in it overall.
The reply should be one of these categories: 1 (yes) (active), 0 (no) (inactive)

Compound | Answer label
CCOc1ccccc1N1CCN(C(=O)c2ccc3[nH]c(C)c(C)c3c2)CC1 | 0 (no)
O=C(CN(C(=O)c1csnn1)c1cccc(Cl)c1)NC1CCCC1 | 0 (no)
CC(C)C[C@H](NC(=O)N1CC(=O)Nc2ccccc21)C(=O)N[C@H](Cc1ccccc1)C(=O)O | 0 (no)
COC(=O)c1ccccc1NC(=O)Cn1nc(C(F)(F)F)c2c1CCC2 | 0 (no)

Query string: What did this assay record as the result for `Cc1ccc(CNC(=O)C(=O)c2cn(CC(=O)N3CCOCC3)c3ccccc23)cc1` ?
Result string: 0 (no)

Query string: Assay outcome for `Cc1c(C)c(C)c(S(=O)(=O)N2CCC3(CC2)OCCO3)c(C)c1C` : what was it?
Result string: 0 (no)

Query string: What outcome does the record of this test show for `CCOC(=O)C1CCN(Cc2nnc(-c3cccc(Br)c3)o2)CC1` ?
Result string: 0 (no)

Query string: Answer briefly: the call reported for O=C(CCC1CCCN(C(=O)c2ccc(F)c(F)c2)C1)N1CCN(c2ccccn2)CC1 (stereo not given) in this assay.
Result string: 0 (no)

Query string: Test call, this compound: `CCCCn1c(SCC(=O)N2CCCC2=O)nc2cc(S(N)(=O)=O)ccc21`
Result string: 0 (no)

Query string: Identify the outcome logged in this assay for the compound shown: CCCCCCCNC(=O)C1(CC2CC(c3cccc(Br)c3)=NO2)CCN(C(=O)c2cc(OCC)c(OCC)c(OCC)c2)CC1 (stereo not given)
Result string: 1 (yes)

====

- Procedure summary: Primary qHTS for delayed death inhibitors of the malarial parasite plastid, 48 hour incubation
- Assay context: P. falciparum luciferase growth in erythrocytes; series mostly up to 28.7 µM
In all, about 310,000 compounds went through this assay and about 18,000 (5.8%) were called active. Not shown: some 22% with an inconclusive outcome. Calls come from the whole dose curve; as a rule, active = well fitted inhibition curve with a large enough effect; inconclusive = small, poorly fitted or top-dose-only effect, or another doubt; inactive = no such curve, though single readings can be large or run the other way. This excerpt belongs to a sample that is enriched for actives.
Outcome (select one): active, inactive

Previously resolved entries follow.
Compound | Answer label
N#Cc1ccc(C(c2ccc(C#N)cc2)n2cncn2)cc1 | inactive
CC(C)(C)C(=O)Cn1c(NCCO)nc2ccccc21 | inactive
CC(CN1CCC(n2nccc2NC(=O)C2CCCC2)CC1)c1ccccc1 (configuration not stated) | inactive
Cc1ccccc1Nc1c(-c2ccccc2)nc2ncccn12 | inactive
CC(C)C(c1nnnn1CCc1ccccc1)N1CCN(C(=O)c2ccco2)CC1 (configuration not stated) | inactive
S=C(Nc1ccc(Cl)cc1Cl)N1CCCC1 | inactive
O=C(Cn1c(NCCO)nc2ccccc21)c1ccc(Cl)cc1Cl | active
Cc1cccc(C)c1Nc1c(-c2ccccc2O)nc2ncccn12 | active
COc1ccc(OC)c(NC(=O)c2sc3nc(C)cc(C)c3c2N)c1 | inactive
O=C(Cn1c(-c2ccc(Cl)cc2)noc1=O)N1CCN(c2ccccc2F)CC1 | active

Query string: Recorded call for `Cc1cccc(NS(=O)(=O)c2cc(Cl)ccc2Cl)n1` ?
Result string: inactive

Query string: Assay result, entry `Clc1ccc(C2=CSC3=Nc4cccc5cccc(c45)N23)cc1` — outcome?
Result string: active

====

- Procedure summary: Primary qHTS for delayed death inhibitors of the malarial parasite plastid, 48 hour incubation
- Assay context: P. falciparum luciferase growth in erythrocytes; series mostly up to 28.7 µM
About 18,000 (5.8%) of roughly 310,000 compounds were called active. Not shown: some 22% with an inconclusive outcome. Calls come from the whole dose curve; as a rule, active = well fitted inhibition curve with a large enough effect; inconclusive = small, poorly fitted or top-dose-only effect, or another doubt; inactive = no such curve, though single readings can be large or run the other way. What follows is part of a selection rich in actives, with near analogues and random picks from the rest.
Respond using exactly one of the listed classes: active, inactive

Illustrative cases are given below, each with its answer.
Compound | Answer label
C=CCn1c(SCC(=O)NC(=O)Cc2ccccc2)nc2ccccc2c1=O | inactive
O=C1CC(N2CCN(C(c3ccccc3)c3ccccc3)CC2)C(=O)N1 (configuration not stated) | inactive
COc1ccc(C(=O)C2CCCN(Cc3cccn3-c3ccccn3)C2)c(C)c1 (configuration not stated) | active
COc1cc(C(=O)NNC(=O)c2ccc(S(=O)(=O)N3CCCCC3)cc2)cc(OC)c1OC | inactive
CC1(C)CC(N2CCN(C(c3ccccc3)c3ccccc3)CC2)=CC(=[N+]2CCCCC2)C1 | active

Query string: What call does the record list for CCOc1ccc(CN2CCN(CCCc3ccccc3)C(CCO)C2)cc1 (configuration not stated) ?
Result string: inactive

Query string: Can you look up the reported call for `COc1ccc(C(=O)NC2CC2)cc1OC1CCN(Cc2cnn(C)c2)CC1` for me?
Result string: inactive

Query string: Each compound tested received a call. Report the one for `Cc1[nH]c2ccccc2c1C(=O)COC(=O)C(C)C` .
Result string: inactive
